Target: tyrosinase
Experiment: Determination of the activity of compounds inhibiting tyrosinase (L-tyrosine substrate, absorbance at 475 nm)
Details: L-tyrosine 0.1 mg/mL, tyrosinase 48 U/mL, pH 6.8, 37° C. 30 min, n = 3; read-out: IC50 ± SEM (tyrosinase inhibition)
Readout Name: IC50 (mM)

CCc1cc(=O)c2c(C)cc(O)cc2o1 : 6.2
CC(=O)Cc1cc(=O)c2c(C)cc(O)c([C@@H]3O[C@H](CO)[C@@H](O)[C@H](O)[C@H]3O)c2o1 [Aloesin, aloesin, reference compound] : 2.7

(a) CCCc1cc(=O)c2c(C)cc(O)cc2o1
(b) CCCc1cc(=O)c2c(C)cc(OCC)cc2o1
Query: Compare a and b and name the one whose reported IC50 is smaller. Identify your pick by its label.
Result: b
(b: 0.6 mM, a: 2.4 mM)
